# tested on: Recombinant HDAC 8 (Homo sapiens)
# Sequence (Q9BY41 whole entry): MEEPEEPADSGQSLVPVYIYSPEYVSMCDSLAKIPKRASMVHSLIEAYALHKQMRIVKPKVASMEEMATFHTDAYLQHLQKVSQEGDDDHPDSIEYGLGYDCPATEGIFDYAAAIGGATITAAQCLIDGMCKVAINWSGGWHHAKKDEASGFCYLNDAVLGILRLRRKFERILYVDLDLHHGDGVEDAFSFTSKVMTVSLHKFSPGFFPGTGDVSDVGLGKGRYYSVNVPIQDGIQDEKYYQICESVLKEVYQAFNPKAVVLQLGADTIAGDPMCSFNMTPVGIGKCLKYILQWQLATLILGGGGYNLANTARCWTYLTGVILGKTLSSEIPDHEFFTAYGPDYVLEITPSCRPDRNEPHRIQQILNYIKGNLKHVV
# protocol summary: Recombinant HDAC8 inhibition, fluorometric assay, 8 h incubation
# condition context: recombinant HDAC8, fluorometric assay, incubating for 8 h; standard deviation in parentheses

{"molecule": "O=C(CCCCCOP(O)(O)=S)Nc1ccccc1 [Compound 7]", "value unit": "µM", "IC50": 49}
{"molecule": "O=C(CCCCCNP(=O)(O)O)Nc1ccccc1 [Compound 2]", "value unit": "µM", "IC50": 129}
{"molecule": "O=C(CCCCCOP(=O)(O)O)Nc1ccccc1 [Compound 5]", "value unit": "µM", "IC50": 179}

====

# tested on: Recombinant HDAC 3 (Homo sapiens, UniProt O15379)
# Sequence (O15379 whole entry): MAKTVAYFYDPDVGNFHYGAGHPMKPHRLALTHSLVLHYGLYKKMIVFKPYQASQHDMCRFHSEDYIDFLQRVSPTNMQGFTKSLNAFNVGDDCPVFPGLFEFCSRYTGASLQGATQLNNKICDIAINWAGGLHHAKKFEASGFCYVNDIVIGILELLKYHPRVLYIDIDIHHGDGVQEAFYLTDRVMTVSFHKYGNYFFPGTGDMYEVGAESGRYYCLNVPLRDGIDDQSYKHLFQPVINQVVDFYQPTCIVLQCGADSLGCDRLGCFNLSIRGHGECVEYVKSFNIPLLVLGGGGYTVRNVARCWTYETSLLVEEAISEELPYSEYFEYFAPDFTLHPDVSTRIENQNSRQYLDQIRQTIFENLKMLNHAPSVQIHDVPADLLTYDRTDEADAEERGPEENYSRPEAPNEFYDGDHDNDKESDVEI
# Sequence (Q9Y618 395-489 partner limits assumed): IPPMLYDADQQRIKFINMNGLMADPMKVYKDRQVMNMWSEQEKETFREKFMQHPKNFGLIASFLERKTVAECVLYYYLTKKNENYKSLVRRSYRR
# protocol summary: Recombinant HDAC3 inhibition, fluorometric assay, 8 h incubation
# condition context: recombinant HDAC3, fluorometric assay, incubating for 8 h; standard deviation in parentheses
pIC50: −log10 of the molar value.
measure name: pIC50

{"molecule": "O=C(CCCCCNP(=O)(O)O)Nc1ccccc1 [Compound 2]", "value reported": 3.62}
{"molecule": "O=C(CCCCCOP(=O)(O)O)Nc1ccccc1 [Compound 5]", "value reported": 3.16}
{"molecule": "O=C(CCCCCOP(O)(O)=S)Nc1ccccc1 [Compound 7]", "value reported": 3.99}
